Biological target: UniProt Q1HRL7
Sequence (Q1HRL7 17-138): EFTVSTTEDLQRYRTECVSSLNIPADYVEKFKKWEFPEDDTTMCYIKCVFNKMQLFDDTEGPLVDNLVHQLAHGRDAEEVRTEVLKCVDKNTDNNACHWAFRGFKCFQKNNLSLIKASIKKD
observation_type: Kd

So what does the record say about Kd for CCCCC/C=C\C/C=C\C/C=C\C/C=C\CCCC(=O)O ?
~230 nM

From: paper PMC6439253
